# experimental.system: Nuclear receptor ROR-gamma (Homo sapiens) (UniProt P51449)
# Sequence (P51449 whole entry, looked up): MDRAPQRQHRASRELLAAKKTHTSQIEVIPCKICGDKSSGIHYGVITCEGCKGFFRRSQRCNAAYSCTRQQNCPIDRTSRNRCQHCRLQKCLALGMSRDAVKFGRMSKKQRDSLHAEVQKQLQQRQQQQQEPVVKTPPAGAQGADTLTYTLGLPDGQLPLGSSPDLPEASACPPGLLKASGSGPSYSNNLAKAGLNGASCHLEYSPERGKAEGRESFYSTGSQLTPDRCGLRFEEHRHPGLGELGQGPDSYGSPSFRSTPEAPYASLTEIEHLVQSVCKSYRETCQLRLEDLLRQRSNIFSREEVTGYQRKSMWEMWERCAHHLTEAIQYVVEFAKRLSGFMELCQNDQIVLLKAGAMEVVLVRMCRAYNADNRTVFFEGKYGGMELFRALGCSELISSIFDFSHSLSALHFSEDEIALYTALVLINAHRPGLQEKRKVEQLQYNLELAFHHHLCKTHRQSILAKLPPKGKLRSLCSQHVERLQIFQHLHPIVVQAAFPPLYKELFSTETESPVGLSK
# protocol: qHTS assay for small molecule antagonists of the retinoid-related orphan receptor gamma (ROR-gamma) signaling pathway (AID 651802); also: nearly all actives have a fitted effect of over 60% in size
# measurement.parameters: ROR-gamma antagonist cell reporter assay; series mostly up to 92.2 µM
Records with an inconclusive call do not appear. Activity calls are given as the source filed them. Calls follow the shape of the dose curve; as a rule, active = well fitted inhibition curve with a large enough effect; inconclusive = small, poorly fitted or top-dose-only effect; inactive = no such curve, though single readings can be large or run the other way.
Please state which outcome applies, choosing from active, inactive

CNCC(O)c1ccc(O)cc1 (configuration not stated) = inactive
OCCOc1ccccc1 = inactive

Which outcome did this test record for the molecule Oc1ccccc1-c1ccccc1 ?
inactive

Further, for N[C@@H](Cc1ccc(N(CCCl)CCCl)cc1)C(=O)O ?
active

// next record CC(C)C(=O)Nc1ccc([N+](=O)[O-])c(C(F)(F)F)c1
active

Follow-up item: c1ccc2c(c1)Nc1ccccc1S2
inactive

Now consider CCCC(C)(COC(N)=O)COC(=O)NC(C)C (configuration not stated) .
inactive

----------
# Test system: CP217
# protocol: qHTS profiling for inhibitors of Plasmodium falciparum proliferation (AID 504749); also: nearly all actives have a fitted effect of over 60% in size
# measurement.parameters: P. falciparum in erythrocytes, SYBR Green DNA, 72 h; series mostly up to 28.7 µM
Results filed as inconclusive are left out. Calls of active or inactive are those of the source. Calls come from the whole dose curve; as a rule, active = well fitted inhibition curve with a large enough effect; inconclusive = small, poorly fitted or top-dose-only effect; inactive = flat fitted curve, though single readings scatter.
Tick one outcome: 1.0 = active, 0.0 = inactive

C=C(C)[C@H]1Cc2c(ccc3c2O[C@@H]2COc4cc(OC)c(OC)cc4[C@@H]2C3=O)O1 = 0.0
O=c1[nH]c2ccccc2n1C1CCN(CCCC(c2ccc(F)cc2)c2ccc(F)cc2)CC1 = 0.0
c1ccc2c(c1)OCC(C1=NCCN1)O2 (stereo unspecified) = 0.0
OCCOc1ccccc1 = 0.0
Nc1ccncc1 = 0.0

Please indicate how the test categorized Clc1ccc(COC(Cn2ccnc2)c2ccc(Cl)cc2Cl)cc1 (stereo unspecified) .
1.0

----------
# protocol: qHTS for differential inhibitors of proliferation of Plasmodium falciparum line 3D7 (AID 1876)
# measurement.parameters: P. falciparum 3D7 proliferation inhibition; series mostly up to 28.7 µM
Results filed as inconclusive are left out. The source made the active and inactive calls. Calls come from the whole dose curve; as a rule, active = well fitted curve in the direction sought with a large enough effect; inconclusive = small, poorly fitted or top-dose-only effect, or another doubt; inactive = no such curve, though single readings can be large or run the other way.
# output must be one of active, inactive

NCC1(CC(=O)O)CCCCC1 = inactive
NN=C(N)N = inactive
NCC(CC(=O)O)c1ccc(Cl)cc1 (stereo not given) = inactive

Returns: the outcome recorded for CCCC(C)(COC(N)=O)COC(=O)NC(C)C (stereo not given) in this assay.
inactive

Also check CN1C[C@H](CNC(=O)OCc2ccccc2)C[C@@H]2c3cccc4c3c(cn4C)C[C@H]21
active

----------
Recorded efficacy values for a group of compounds are listed next.
# measurement.parameters: Ebola virus entry assay, green fluorescence channel
Measured potencies and affinities stand elsewhere. Activity calls are given as the source filed them.

See these solved cases before continuing.
OC(CCN1CCCC1)(c1ccccc1)C1CCCCC1 (configuration not stated) = 120% (inactive)
CC(C)(O)c1ccccc1CC[C@@H](SCC1(CC(=O)O)CC1)c1cccc(/C=C/c2ccc3ccc(Cl)cc3n2)c1 = 12.9% (inactive)
O=c1oc2ccccc2c(O)c1C(CC(O)c1ccc(-c2ccc(Br)cc2)cc1)c1ccccc1 (configuration not stated) = 92.1% (inactive)

Param item = CO[C@@]12[C@H](COC(N)=O)C3=C(C(=O)C(C)=C(N)C3=O)N1C[C@@H]1N[C@@H]12 ; retrieve measured efficacy.
19.7% (inactive)

Query O=C(C1CCCCC1)N1CC(=O)N2CCc3ccccc3C2C1 (configuration not stated) next
43.7% (inactive)

----------
# protocol: Confirmatory qHTS for VERO E6 Cytotoxicity Assay: Counterscreen for SARS-CoV-2 CPE Assay (AID 1508605); also: nearly all actives have a fitted effect of over 60% in size
# measurement.parameters: cell viability luminescence; series mostly up to 20 µM
Results filed as inconclusive are left out. The source made the active and inactive calls. The call rests on the fitted dose curve.
Just give me one of these, please: active, inactive

Worked cases, answers included:
CN(C)CCC=C1c2ccccc2CCc2ccccc21 = inactive
CCCCc1oc2ccccc2c1C(=O)c1cc(I)c(OCCN(CC)CC)c(I)c1 = inactive
CN1CCN(CCCN2c3ccccc3Sc3ccc(Cl)cc32)CC1 = active
CN(C)C(=O)C(CCN1CCC(O)(c2ccc(Cl)cc2)CC1)(c1ccccc1)c1ccccc1 = inactive
COc1ccccc1OCCNCC(O)COc1cccc2[nH]c3ccccc3c12 (stereo not drawn) = inactive

Per the records of this test, what outcome belongs to CN1CCC(=C2c3ccccc3C=Cc3ccccc32)CC1 ?
inactive

// same read-out, input: Cc1ccc(NC(=O)c2ccc(CN3CCN(C)CC3)cc2)cc1Nc1nccc(-c2cccnc2)n1
inactive

Okay, and CN(C)CCC=C1c2ccccc2C=Cc2ccccc21 ?
inactive

# iterate: CCCNCC(O)COc1ccccc1C(=O)CCc1ccccc1 (stereo not drawn)
inactive

Again, but for Clc1ccc2c(c1)C(N1CCNCC1)=Nc1ccccc1O2
inactive

Next compound: CNCCCC1c2ccccc2C=Cc2ccccc21
inactive

Same question, CC(CN(C)C)CN1c2ccccc2CCc2ccccc21 (stereo not drawn) this time
inactive

Please answer likewise for O=C(O)C(=O)c1cn(Cc2ccccc2)c2ccc(-c3ccc(OC(F)(F)F)cc3)cc12
inactive

----------
# measurement.parameters: Ebola virus entry assay, ratio channel
Activity calls are given as the source filed them.
Permitted responses: TRUE (active), FALSE (inactive)

Example entries and their recorded answers appear below.
CC(=O)[C@H]1CC[C@H]2[C@@H]3CC[C@H]4C[C@](C)(O)CC[C@]4(C)[C@H]3CC[C@]12C = FALSE
CN1CCC(=C2c3ccccc3C=Cc3ccccc32)CC1 = TRUE
CC(c1cc2ccccc2s1)N(O)C(N)=O (centres undefined) = FALSE
COc1cc2c(cc1OC)C(=O)C(CC1CCN(Cc3ccccc3)CC1)C2 (centres undefined) = TRUE
NC(=O)N/N=C/c1ccc([N+](=O)[O-])o1 = FALSE
CC(=O)O[C@@]12CO[C@@H]1C[C@H](O)[C@@]1(C)C(=O)[C@H](O)C3=C(C)[C@@H](OC(=O)[C@H](O)[C@@H](NC(=O)OC(C)(C)C)c4ccccc4)C[C@@](O)([C@@H](OC(=O)c4ccccc4)[C@H]21)C3(C)C = TRUE

So what was the verdict on O=C1NCN(c2ccccc2)C12CCN(CC1COc3ccccc3O1)CC2 (centres undefined) in this test?
FALSE

# iterate: CC1(C)S[C@@H]2[C@H](NC(=O)Cc3ccccc3)C(=O)N2[C@H]1C(=O)O (tested in a mixture with another compound)
FALSE

What do you have for Cc1nc(Nc2ncc(C(=O)Nc3c(C)cccc3Cl)s2)cc(N2CCN(CCO)CC2)n1 ?
TRUE

What about this compound? CN(C)CCCN1c2ccccc2Sc2ccc(Cl)cc21
TRUE

What do you get for C[C@@H](O[C@H]1OCCN(Cc2n[nH]c(=O)[nH]2)[C@H]1c1ccc(F)cc1)c1cc(C(F)(F)F)cc(C(F)(F)F)c1 ?
TRUE

Now the same for CCN(CC)CCNC(=O)c1c(C)[nH]c(/C=C2\C(=O)Nc3ccc(F)cc32)c1C
TRUE

----------
# measurement.parameters: Ebola virus entry assay, green fluorescence channel
Potency and affinity values are given separately.
Reported efficacy values are given for each entry in this list.
// return numeric value only (unit: %, not printed)

CCCN1CCC[C@@H]2Cc3[nH]ncc3C[C@H]21 = -15.1
Cc1cccc(C)c1NC(=O)CN1CCCC1=O = -15.1
COC1=CC(=O)C[C@@H](C)[C@]12Oc1c(Cl)c(OC)cc(OC)c1C2=O = 30

Given the entry CC(=O)Nc1nnc(S(N)(=O)=O)s1 , report its measured efficacy.
-19.1

Check Cc1cn([C@H]2C[C@H](N=[N+]=[N-])[C@@H](CO)O2)c(=O)[nH]c1=O too.
17

CCCCNC(=O)NS(=O)(=O)c1ccc(C)cc1 ?
-19.2

Now the same for CN(C)CC[C@@H](c1ccc(Br)cc1)c1ccccn1
34.2

Same question, CCc1nn(CCCN2CCN(c3cccc(Cl)c3)CC2)c(=O)n1CCOc1ccccc1 this time
111

Similarly, Nc1cccc2c1CN(C1CCC(=O)NC1=O)C2=O (stereo not drawn) ?
15.2

// same read-out, input: CN(C)CCOC(C)(c1ccccc1)c1ccccn1 (stereo not drawn)
20.1

Moving on to CCOc1ccc2ccccc2c1C(=O)N[C@@H]1C(=O)N2[C@@H]1SC(C)(C)[C@@H]2C(=O)O
20.5

Try the compound CC(C)(N)Cc1ccc(Cl)cc1
29.5

How about Nc1nnc(-c2cccc(Cl)c2Cl)c(N)n1 ?
-18.2

Query COc1cc(NCc2ccc3nc(N)nc(N)c3c2C)cc(OC)c1OC next
44.2

Try this compound too: COc1cc2c(c(OC)c1OC)-c1ccc(OC)c(=O)cc1[C@@H](NC(C)=O)CC2
-81.3

Now consider Cc1cn[nH]c1 and answer again.
-9.66

How about Cc1nc(N)nc(N)c1-c1ccc(Cl)c(Cl)c1 ?
-23

And then CC(C)c1nc(CN(C)C(=O)N[C@H](C(=O)N[C@@H](Cc2ccccc2)C[C@H](O)[C@H](Cc2ccccc2)NC(=O)OCc2cncs2)C(C)C)cs1 , what is it?
31.8

Entry to check: CCN(CC)CCOC(=O)C1(C2CCCCC2)CCCCC1
45

For CN1CCN(C2=Nc3ccccc3Oc3ccc(Cl)cc32)CC1 then?
112

Same question for CC(=O)SC[C@@H](C)C(=O)N1CCC[C@H]1C(=O)N[C@@H](Cc1ccccc1)C(=O)O please.
13.4

Entry to check: O=C(OC1C[C@H]2CC[C@@H](C1)[N+]21CCCC1)C(O)(c1ccccc1)c1ccccc1 (stereo partly drawn)
12.9

Then CCC(=O)C(CC(C)N(C)C)(c1ccccc1)c1ccccc1 (stereo not drawn) ?
118
